Test system: SN12C renal
Test: NCI-60 one-dose screen, 48 h (100 = growth as untreated, 0 = no growth, -100 = all killed)
Conditions: 10 µM unless noted
This is part of a sample that, as a whole, favours compounds with a hit. Of some 83,000 tested, about 20% had one in any assay.
Categories are assigned from the measured growth using these intervals: lo: < 50%; mid: ≥ 50% and < 90%; hi: ≥ 90%

| compound | class |
| --- | --- |
| CN1CCN(C(=O)c2ccc(NC(=O)c3cc4c(nn3)NCCN4Cc3cc(Cl)ccc3Cl)cc2)CC1 | mid |
| COc1cccc(CNc2ccc3ncnc(Nc4ccc(F)c(Cl)c4)c3c2)c1 | mid |
| CCCNC(=O)Nc1ccc2cc3ccc(NC(=O)NCCC)cc3nc2c1 | hi |
| O=[N+]([O-])c1ccc(O)cc1Br | hi |
| COc1cccc(/C=C2\COc3ccc(O)c(O)c3C2=O)c1 | lo |
| Nc1n[nH]c2cccc(C#Cc3cccc(C(=O)Nc4cc(C(F)(F)F)cc(C(F)(F)F)c4)c3)c12 | mid |
| C=C1CC[C@@H]2[C@](C)(COC(C)=O)[C@H](OC(C)=O)CC[C@@]2(C)[C@@H]1CC(Nc1ccc(S(=O)(=O)Nc2ncccn2)cc1)C1=CCOC1=O (some centres undefined) | lo |
| CCC(=O)Oc1ccc(-c2ccccc2)cc1Br | hi |
| COc1ccc(/C=C/C(=O)c2cccc(OCCCCOc3cccc(C(=O)/C=C/c4ccc(OC)c(OC)c4)c3)c2)cc1OC | mid |

====

Tested on: SF-539 CNS
Assay: NCI-60 one-dose screen, 48 h
Conditions: 10 µM unless noted
The panel holds about 83,000 compounds, 20% with a hit somewhere; the sample as a whole holds those more often. The source made the active and inactive calls. How the source made its calls: active means growth percent below 10; inactive means the rest.
Labels: active, inactive

| compound | measured.target | class |
| --- | --- | --- |
| O=C1C(Cl)=C(NCCCCCCNC2=C(Cl)C(=O)c3ccccc3C2=O)C(=O)c2ccccc21 | SF-539 CNS | inactive |
| O=C(O)c1cn(C2CC2)c2cc(N3CCN(Cc4ccc5ccccc5c4O)CC3)c(F)cc2c1=O | SF-539 CNS | active |
| COc1ccc2c(c1)N(CCO)C1=C(C(=O)OC1)C2c1cccc(F)c1 (stereo not given) | SF-539 CNS | active |
| O=C1/C=C/[C@@H](O)[C@@H]2C[C@@H](O)C[C@H]2/C=C/CCC[C@H](CCc2ccccc2)O1 | SF-539 CNS | inactive |
| CC/C(=C(/c1ccc(Cl)cc1)c1ccc(OCCN(C)C)cc1)c1ccc(Cl)cc1 | SF-539 CNS | inactive |
| CCCn1cc2c(=O)nc3sc(Cc4ccccc4)c(C)n3c2n1 | SF-539 CNS | inactive |
| CCOc1ccccc1Cn1ccnc1CCc1c(Cl)c(O)cc(O)c1C(=O)OC | SF-539 CNS | inactive |
| O=C1/C(=C/c2ccccc2Br)COc2ccc(O)cc21 | SF-539 CNS | inactive |
| O=C(Nc1nc(-c2ccc(Cl)cc2)nc2c1sc(=S)n2-c1ccccc1)C(F)(F)F | SF-539 CNS | active |
| O=S(=O)(NCCCNc1nccc(-c2c(-c3ccc(F)c(O)c3)nc3sccn23)n1)c1ccccc1 | SF-539 CNS | inactive |
| COc1cc(-c2csc(NC(=O)c3ccc(N4CCOCC4)c(C(F)(F)F)c3)n2)cc(OC)c1OC | SF-539 CNS | inactive |
| Oc1c(I)cc(I)cc1CNCc1ccccn1 | SF-539 CNS | inactive |
| COc1cc(OC)c(NC(=O)c2cc3ccccc3cc2O)cc1Cl | SF-539 CNS | inactive |
| COc1ccc(Nc2nc(-c3cc(O)c(C)c(C)c3O)cs2)cc1 | SF-539 CNS | inactive |
| Cc1sc2nc(NCCc3c[nH]c4ccc(Cl)cc34)[nH]c(=O)c2c1C | SF-539 CNS | inactive |
| O=CN1N=C(c2cccc(Nc3ccnc4cc(Cl)ccc34)c2)CC1c1ccccc1 (stereo not given) | SF-539 CNS | active |
| O=C1c2c(c3c4ccccc4[nH]c3c3ccc4ccccc4c23)C(=O)N1CCN1CCOCC1 | SF-539 CNS | inactive |
| CCN(CC)c1ccc(\C=N/N=C(N)/C(N)=N\N=C/c2ccc(N(CC)CC)cc2)cc1 | SF-539 CNS | inactive |
| Cn1cc(-c2csc(-c3c[nH]c4ccccc34)n2)c2cnccc21 | SF-539 CNS | active |
| COc1ccc(C/C(C)=C(\c2ccc(Cl)cc2)c2ccc(OCCN3CCCCC3)cc2)cc1 | SF-539 CNS | inactive |

====

System: SW-620 colon
Assay: NCI-60 one-dose screen, 48 h (100 = growth as untreated, 0 = no growth, -100 = all killed)
Details: 10 µM unless noted
The panel holds about 83,000 compounds, 20% with a hit somewhere; the sample as a whole holds those more often.
property.name: growth (%)

| compound | reported.measurement |
| --- | --- |
| O=C(OC(CO)C(=O)NC12CC3CC(CC(C3)C1)C2)c1ccc(Cl)cc1 (stereo not given) | 101 |
| COCCn1cc(-c2nc(-c3cc4cccnc4[nH]3)cs2)c2cc(OC)ccc21 | 48.4 |
| Nc1c(C(=O)Nc2ccncc2)sc2nc3c(cc12)C(O)CCC3 (stereo not given) | 99.7 |
| Clc1cc(Cl)c(Cl)c(-c2nnc(SCc3ccncc3Br)o2)c1 | 96.5 |
| COc1ccc(C(C)=O)cc1S(=O)(=O)Nc1c(N)nc(SC)[nH]c1=O | 101 |
| CC(C)c1ccc(C(=O)Nc2nc3ccc(O)c(CN(C)C)c3s2)cc1 | 36.2 |
| Nc1[nH]n2cc(-c3ccccc3)nc2c1N=Nc1ccc(S(N)(=O)=O)cc1 | 26.1 |
| COc1cc2c(c(OC)c1OC)CCC(c1cccc(NC(=O)c3ccc(Br)cc3)c1)O2 (stereo not given) | 91.5 |
| CC(C)=CC(=O)OCC(=O)O[C@@H]1C[C@]2(C(C)C)O[C@@]1(C)[C@@H]1CC[C@@H](C)[C@H]1[C@@H]2OC(=O)/C=C/c1ccccc1 | 87.1 |
| COc1ccc(C2=C(Br)C(=O)c3nc(C)ccc3C2=O)cc1 | 27.2 |

====

Tested on: SW-620 colon
Assay: NCI-60 one-dose screen, 48 h (100 = growth as untreated, 0 = no growth, -100 = all killed)
Details: 10 µM unless noted
This is part of a sample that, as a whole, favours compounds with a hit. Of some 83,000 tested, about 20% had one in any assay.
growth less than 10% is True; growth greater than or equal to 10% is False.

| structure.as.smiles | class |
| --- | --- |
| N#Cc1c(-c2ccc(Cl)cc2)nc(NN2C(=O)c3ccccc3C2=O)nc1N1CCOCC1 | False |
| COC1=CC(c2ccc[nH]2)=N/C1=C\c1[nH]c(C)c(C(=O)OC(C)C)c1C | True |
| Ic1ccc(OCCCCn2ccnc2)cc1 | False |
| O=c1[nH]c(-c2ccccc2)nc2sc3cc(O)ccc3c12 | False |

====

In this section, each of the molecules is paired with its reported growth.
System: MDA-MB-435 melanoma
Experiment: NCI-60 one-dose screen, 48 h (100 = growth as untreated, 0 = no growth, -100 = all killed)
Details: 10 µM unless noted
This is part of a sample that, as a whole, favours compounds with a hit. Of some 83,000 tested, about 20% had one in any assay.
property.name: growth (%)

| structure.as.smiles | property.name | unit.of.measurement | reported.measurement |
| --- | --- | --- | --- |
| CNC(=O)c1[nH]cc(-c2ccc(OC)cc2)c1-c1cc(OC)c2c(c1OC)OCO2 | growth | % | 99.6 |
| CCOC(=O)C/C(=N\Nc1cc(=O)[nH]c2ccc(Br)cc12)C(=O)OCC | growth | % | 101 |
| CCCCCCCCCCCCCCCCCCOc1ccccc1CC(=O)OCC[N+](C)(C)C | growth | % | 31.5 |
| c1ccc(Cn2cc3c(c2)-c2oncc2CC3)cc1 | growth | % | -34.7 |
| CN(C)c1ccc(-c2c(C#N)c(N)nn2C(=O)c2ccc(NC(=O)c3ccccn3)cc2)cc1 | growth | % | 98.2 |

====

Test system: HS 578T breast
Test: NCI-60 one-dose screen, 48 h
Conditions: 10 µM unless noted
The panel holds about 83,000 compounds, 20% with a hit somewhere; the sample as a whole holds those more often. Active and inactive are the calls of the source. How the source made its calls: active means growth percent below 10; inactive means the rest.
Labels: y for active, n for inactive

| compound | class |
| --- | --- |
| Cn1cc(-c2csc(-c3c[nH]c4ccc(Br)cc34)n2)c2ccnc(Cl)c21 | n |
| COc1cc(/C=C/C(=O)c2ccc(F)cc2)ccc1OCCCCOc1ccc(/C=C/C(=O)c2c(C)nc3ccccc3c2C)cc1OC | n |
| COC(=O)c1c(C)nc(C)c2c1C(=O)C(Br)=C(NCc1ccccc1)C2=O | n |
| Nc1ncnc2c1N=C(c1ccc(Br)cc1)CC(c1cccc(Nc3ccnc4cc(C(F)(F)F)ccc34)c1)N2 (centres undefined) | n |
| CCn1cc(C(=O)NNC(=S)Nc2ccc(C)cc2)c(=O)c2ccc(C)nc21 | n |
| Nc1cc(C(=O)NC[C@H]2CN(c3ccc(N4CCC(C(=O)O)CC4)cc3)C(=O)O2)ccc1Cl | n |
| CC(C)c1ccc(C(=O)Nc2sc3c(c2C(N)=O)CCC(=O)C3)cc1 | y |
| CCN(CC)CCn1c2ccc(O)cc2c2sc3cc(O)ccc3c(=O)c21 | n |
| COC(=O)c1nc(-c2ccccc2)oc1S(=O)(=O)Cc1ccccc1 | n |
